These entries and their values trace back to PubChem BioAssay (NCATS).

ASSAY PROTOCOL: Quantitative High-Throughput drug screen in 47 multiple myeloma cell lines against the NCATS MIPE library collection: KHM11_PLB cell viability assay (AID 1918962); note: potency is the fitted concentration of half-maximal effect; nearly all actives have a fitted effect of over 35% in size
EXPERIMENTAL CONTEXT: KHM11 myeloma cell viability, CellTiter-Glo ATP luminescence, 48 h; series mostly up to 45.8 µM
Records with an inconclusive call do not appear. Active and inactive are the calls of the source. Calls come from the whole dose curve; as a rule, active = well fitted cell-killing curve with a large enough effect; inconclusive = small, poorly fitted or top-dose-only effect, or effect the other way; inactive = no such curve, though single readings can be large or run the other way.
MEASURED PARAMETER: Potency

Recorded Potency, per entry:
| ENTRY SMILES | Potency |
| --- | --- |
| CCS(=O)(=O)c1cccc(-c2cc(C(=O)NC3CCN(C)CC3)c(C)c3[nH]c4ncc(C)cc4c23)c1 | 526 nM (active) |
| Cc1cc(Nc2cc(NC(=O)c3c(Cl)cccc3Cl)ccn2)nc(N)n1 | 8330 nM (active) |

Report Potency for every entry below.
1. Cc1[nH]c2ccccc2c1CCNCc1ccc(C=CC(=O)NO)cc1
2. CC[C@@]1(O)C(=O)OCc2c1cc1n(c2=O)Cc2cc3cc(O)ccc3nc2-1
3. CCn1nnc2c(N3CCOCC3)nc(-c3ccc(NC(=O)Nc4ccc(C(=O)N5CCN(C)CC5)cc4)cc3)nc21

Result:
["148 nM (active)", "590 nM (active)", "5.9 nM (active)"]

----------
ASSAY PROTOCOL: Quantitative High-Throughput drug screen in 47 multiple myeloma cell lines against the NCATS MIPE library collection: MM1R_ATCC cell viability assay (AID 1918981); note: nearly all actives have a fitted effect of over 35% in size; note: potency is the fitted concentration of half-maximal effect
EXPERIMENTAL CONTEXT: MM1R multiple myeloma cells, CellTiter-Glo viability, 48 h; series mostly up to 45.8 µM
Results filed as inconclusive are left out. The source made the active and inactive calls. Calls follow the shape of the dose curve; as a rule, active = well fitted cell-killing curve with a large enough effect; inconclusive = small, poorly fitted or top-dose-only effect, or effect the other way; inactive = no such curve, though single readings can be large or run the other way.
MEASURED PARAMETER: Potency

| COMPOUND | OBS VALUE |
| --- | --- |
| COC(=O)Nc1ccc(-c2nc(N3CCOCC3)c3cnn(C4CCN(Cc5cccnc5)CC4)c3n2)cc1 | 1.48 µM (active) |
| C[C@H]1C[C@@H]2[C@@H]([C@@H](O)C[C@@]3(C)[C@H]2CC[C@]3(O)C(=O)CO)[C@@]2(C)C=CC(=O)C=C12 | inactive |
| CC(=O)OCCN1C(=O)c2c(C)nc3ccc(S(=O)(=O)N4CCOCC4)cc3c2C1=O | inactive |
| Cc1cc(Nc2cc(N3CCN(C)CC3)nc(Sc3ccc(NC(=O)C4CC4)cc3)n2)n[nH]1 | 16.6 µM (active) |
| C[C@]1(CO)CN(c2cc(C(=O)Nc3ccc4c(c3)-c3c(c(C(N)=O)nn3-c3ccc(F)cc3)CC4)c(Cl)cn2)C[C@@]1(C)CO | 8.33 µM (active) |
| COc1c(OCCCN2CCOCC2)ccc2c3n(c(=NC(=O)c4cnc(N)nc4)nc12)CCN3 | 0.0812 µM (active) |

Hi! Can you tell me Potency for each of these compounds?
1. CCC(=C(c1ccccc1)c1ccc(OCCN(C)C)cc1)c1ccccc1
2. CNC(=O)c1nn(C)c2c1C(C)(C)Cc1cnc(Nc3ccc(N4CCN(C)CC4)cc3)nc1-2
3. CC(C)C[C@H](NC(=O)CNC(=O)c1cc(Cl)ccc1Cl)B(O)O

Result:
["23.5 µM (active)", "3.32 µM (active)", "0.0418 µM (active)"]

----------
System: Zika virus NS2B-NS3 protease (unlinked complex)
ASSAY PROTOCOL: Primary screen GU Rhodamine qHTS for Zika virus inhibitors: Unlinked NS2B-NS3 protease assay (AID 1347159); note: nearly all actives have a fitted effect of over 60% in size
EXPERIMENTAL CONTEXT: Recombinant ZIKV NS2B-NS3 protease, Rhodamine110 substrate fluorescence; series mostly up to 107 µM
Inconclusive results are not listed. Calls of active or inactive are those of the source. Calls follow the shape of the dose curve; as a rule, active = well fitted inhibition curve with a large enough effect; inconclusive = small, poorly fitted or top-dose-only effect; inactive = no such curve, though single readings can be large or run the other way.
// one of YES = active, NO = inactive, no free text

Q: Recorded call for `C=CC(=O)N1CCC[C@@H](n2nc(-c3ccc(Oc4ccccc4)cc3)c3c(N)ncnc32)C1` ?
Result: NO

Q: Outcome? `Cc1nc(N)ncc1-c1nc(N2CCOCC2)c2sc(C(C)(C)O)cc2n1`
Result: NO

Q: # outcome recorded in this test, key = `CC(C)c1cc(C(=O)N2Cc3ccc(CN4CCN(C)CC4)cc3C2)c(O)cc1O`
Result: NO
